Where do the numbers come from? From patent US20220281976A1.

Biological target: human CD33 (human, UniProt P20138 18-364)
Sequence (P20138 18-364): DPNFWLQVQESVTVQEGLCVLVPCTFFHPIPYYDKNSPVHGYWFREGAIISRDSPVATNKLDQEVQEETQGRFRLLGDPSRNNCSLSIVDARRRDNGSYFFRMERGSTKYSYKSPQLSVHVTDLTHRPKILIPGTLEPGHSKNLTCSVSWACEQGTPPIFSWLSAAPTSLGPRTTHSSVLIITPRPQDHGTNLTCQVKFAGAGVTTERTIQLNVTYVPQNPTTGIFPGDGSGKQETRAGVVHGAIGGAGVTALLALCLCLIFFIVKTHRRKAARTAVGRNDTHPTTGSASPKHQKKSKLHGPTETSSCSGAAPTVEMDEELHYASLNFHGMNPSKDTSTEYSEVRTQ
Experiment: cell-based or functional assay
Recorded Percent CD33 Surface Expression, Monocyte % CD33 for the following binders
Return type: number; implicit unit %.

Known Percent CD33 Surface Expression, Monocyte % CD33 results, listed for orientation:
C-91 (antibody, V domains shown, human IgG1) VH: EVQLVESGGGLVQPGGSLRLSCAASGFTFSSYWMSWVRQAPGKGLEWVANIKSDGSEKYYVDSVKGRFTISRDNAKNSLYLQMNSLRAEDTAVYYCARDVGGDYSGSDLASYWGQGTLVTVSS VL: DIQMTQSPSSLSASVGDRVTITCRASQSISSYLNWYQQKPGKAPKLLIYAASSLQSGVPSRFSGSGSGTDFTLTISSLQPEDFATYYCQQGYDPPLTFGGGTKVEIK : 24.3
C-25 (antibody, V domains shown, human IgG1) VH: EVQLVESGGGLVQPGGSLRLSCAASGFTFSSYWMSWVRQAPGKGLEWVANIKSDGSEKYYVDSVKGRFTISRDNAKNSLYLQMNSLRAEDTAVYYCAREGFRDGINWFDPWGQGTLVTVSS VL: DIQMTQSPSSLSASVGDRVTITCRASQSISRYLNWYQQKPGKAPKLLIYAASSLQSGVPSRFSGSGSGTDFTLTISSLQPEDFATYYCQQQFLTPITFGGGTKVEIK : 35.4

As a next step, examine the binder that follows.
input: Sample C-36 (antibody, V domains shown, human IgG1) VH: EVQLVESGGGLVQPGGSLRLSCAASGFTFSSYWMSWVRQAPGKGLEWVANIKQDGSEKYYVDSVKGRFTISRDNAKNSLYLQMNSLRAEDTAVYYCARDGQYYPAYGMDVWGQGTTVTVSS VL: EIVMTQSPATLSVSPGERATLSCRASQSVSSNLAWYQQKPGQAPRLLIYGASTRATGIPARFSGSGSGTEFTLTISSLQSEDFAVYYCQQYFDLPTFGGGTKVEIK — what was its Percent CD33 Surface Expression, Monocyte % CD33?
output: 46.6
